- experimental-system: Recombinant full length PARP1 (Homo sapiens (Human))
- Sequence (P09874 whole entry): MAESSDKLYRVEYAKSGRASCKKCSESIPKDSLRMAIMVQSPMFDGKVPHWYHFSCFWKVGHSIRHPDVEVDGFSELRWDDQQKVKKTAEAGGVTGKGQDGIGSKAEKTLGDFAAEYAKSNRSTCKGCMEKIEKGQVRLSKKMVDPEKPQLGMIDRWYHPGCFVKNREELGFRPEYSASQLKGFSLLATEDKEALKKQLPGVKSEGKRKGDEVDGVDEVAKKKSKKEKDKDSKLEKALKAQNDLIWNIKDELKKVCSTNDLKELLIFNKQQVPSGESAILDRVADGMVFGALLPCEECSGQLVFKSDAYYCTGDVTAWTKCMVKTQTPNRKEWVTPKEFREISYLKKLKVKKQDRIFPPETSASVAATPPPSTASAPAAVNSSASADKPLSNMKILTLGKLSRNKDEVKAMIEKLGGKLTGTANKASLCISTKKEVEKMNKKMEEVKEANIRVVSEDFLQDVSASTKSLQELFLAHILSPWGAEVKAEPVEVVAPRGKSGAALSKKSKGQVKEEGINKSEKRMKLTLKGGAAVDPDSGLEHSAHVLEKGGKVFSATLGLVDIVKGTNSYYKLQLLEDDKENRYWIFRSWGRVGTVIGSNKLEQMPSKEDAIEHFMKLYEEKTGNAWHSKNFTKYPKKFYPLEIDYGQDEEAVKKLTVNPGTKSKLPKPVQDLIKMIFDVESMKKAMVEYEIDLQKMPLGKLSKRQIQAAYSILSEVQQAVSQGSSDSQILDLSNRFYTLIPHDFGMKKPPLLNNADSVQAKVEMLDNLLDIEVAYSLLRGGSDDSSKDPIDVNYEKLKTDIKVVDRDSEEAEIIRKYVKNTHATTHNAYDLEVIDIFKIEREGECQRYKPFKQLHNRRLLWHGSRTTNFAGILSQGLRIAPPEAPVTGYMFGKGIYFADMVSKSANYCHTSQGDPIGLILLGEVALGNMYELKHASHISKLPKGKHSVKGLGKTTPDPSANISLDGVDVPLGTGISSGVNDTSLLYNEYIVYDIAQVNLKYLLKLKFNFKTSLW
- experiment-summary: FP assay PARP1 (fluorescence anisotropy probe displacement)
- experimental-setup: 20 nM PARP1, 8 nM fluorescent probe, 4 h, room temperature
observation-type: IC50 (nM)

(a) CCc1cc2ncc(CN3CC(Oc4ccc(C(=O)NC)nc4)C3)cc2[nH]c1=O
(b) CCc1cc2ncc([C@@H](C)N3CC(Oc4ccc(C(=O)NC)nc4)C3)cc2[nH]c1=O
Of the two listed items, a and b , which carries the larger IC50 figure? Indicate which entry you chose by stating its label.
b
(b: 10.3 nM, a: 4.8 nM)

====

- experiment-summary: Caco2 (A-B/B-A) permeability
- Assay type: in vitro ADME
- experimental-setup: human, Caco-2, pH 7.4, basolateral-to-apical, 5 μM, HBSS pH 7.4, 120 min, 37° C.; read-out: Caco2 B-A apparent permeability (Papp)
observation-type: Papp B→A at 120 min, 5 μM (×10⁻⁶ cm/s)

| compound | experimental-value |
| --- | --- |
| CCc1cc2ncc([C@@H](C)N3CC(Oc4ccc(C(=O)NC)nc4)C3)cc2[nH]c1=O | 35.7 |
| CCc1cc2ncc(CN3CC4CCN(c5ccc(C(=O)NC)nc5)C4C3)cc2[nH]c1=O (stereo not drawn) | 35.3 |
| CCc1cc2ncc([C@H](C)N3CC[C@@H](Oc4ccc(C(=O)NC)nc4)C3)cc2[nH]c1=O (single isomer, unassigned) | 35.5 |
| CCc1nc2ccc(CN3CC[C@@H](Oc4ccc(C(=O)NC)nc4)C3)cc2[nH]c1=O | 31.8 |
| CCc1cc2ncc(CN3CC4CN(c5ccc(C(=O)NC)nc5)CC4C3)cc2[nH]c1=O (stereo not drawn) | 35.7 |
| CCc1cc2cnc(C(C)N3CC(Oc4ccc(C(=O)NC)nc4)C3)cc2[nH]c1=O (stereo not drawn) | 34.6 |
